assay: Oral bioavailability in dog; type: ADME, organism-based, Canis lupus familiaris; conditions: in vivo
EXPERIMENTAL_ENDPOINT: bioavailability
Express the reported value numerically, then name its unit.

Short answer for Cc1noc(NC(=O)N2CCC3(CC2)CC(c2ccc(F)c(Cl)c2)C3)c1C : bioavailability was 33%

* * *

// reported log10 of Ratio per item
Target: Fatty-acid amide hydrolase 1 (Rattus norvegicus) (UniProt P97612)
Sequence (whole entry): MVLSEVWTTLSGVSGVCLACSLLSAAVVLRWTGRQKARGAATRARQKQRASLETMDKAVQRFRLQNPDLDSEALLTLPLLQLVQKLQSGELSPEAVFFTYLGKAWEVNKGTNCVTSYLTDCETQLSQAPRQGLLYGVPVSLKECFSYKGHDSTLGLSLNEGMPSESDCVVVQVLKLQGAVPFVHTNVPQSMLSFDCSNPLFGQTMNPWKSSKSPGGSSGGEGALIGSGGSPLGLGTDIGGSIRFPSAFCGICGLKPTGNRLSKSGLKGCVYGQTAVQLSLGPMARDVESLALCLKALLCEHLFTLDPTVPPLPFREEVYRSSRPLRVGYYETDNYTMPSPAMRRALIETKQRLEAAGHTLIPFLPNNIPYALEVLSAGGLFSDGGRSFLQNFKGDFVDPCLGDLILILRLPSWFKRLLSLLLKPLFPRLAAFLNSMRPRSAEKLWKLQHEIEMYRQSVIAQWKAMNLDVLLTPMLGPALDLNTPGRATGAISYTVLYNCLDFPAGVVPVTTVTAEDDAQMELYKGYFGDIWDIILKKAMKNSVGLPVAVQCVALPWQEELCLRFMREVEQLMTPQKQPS
Assay: Ratio of Kinact to Ki for rat FAAH activity
Use the decimal logarithm of Ratio (M⁻¹ s⁻¹).

# COMPOUND, TARGET_OR_TEST_SYSTEM, log10 of Ratio
records = [
    ("Cc1noc(NC(=O)N2CCC3(CC2)CC(c2ccccc2)C3)c1C", "Fatty-acid amide hydrolase 1 (Rattus norvegicus) (UniProt P97612)", 2.83),
    ("CCc1cccc(C2CC3(CCN(C(=O)Nc4onc(C)c4C)CC3)C2)c1", "Fatty-acid amide hydrolase 1 (Rattus norvegicus) (UniProt P97612)", 3.13),
    ("CCn1nnnc1NC(=O)N1CCC2(CC1)CC(c1cccc(OC(F)(F)F)c1)C2", "Fatty-acid amide hydrolase 1 (Rattus norvegicus) (UniProt P97612)", 3.53),
    ("Cc1noc(NC(=O)N2CCC3(CC2)CC(c2cccc(Cl)c2)C3)c1C", "Fatty-acid amide hydrolase 1 (Rattus norvegicus) (UniProt P97612)", 3.55),
    ("Cn1nnnc1NC(=O)N1CCC2(CC1)CC(c1cccc(C(F)(F)F)c1)CO2 (stereo in doubt; form 2)", "Fatty-acid amide hydrolase 1 (Rattus norvegicus) (UniProt P97612)", 3.32),
    ("Cc1noc(NC(=O)N2CCC3(CC2)CC(c2ccc(OC(F)(F)F)cc2)CO3)c1C (racemic)", "Fatty-acid amide hydrolase 1 (Rattus norvegicus) (UniProt P97612)", 2.66),
]

Short answer for Cc1noc(NC(=O)N2CCC3(CC2)CC(c2cccc(OC(F)(F)F)c2)CO3)c1C (racemic) : log10 of Ratio was 3.49

Short answer for Cc1noc(NC(=O)N2CCC3(CC2)CC(c2ccc(F)c(Cl)c2)CO3)c1C (racemic) : log10 of Ratio was 3.60

Short answer for Cc1noc(NC(=O)N2CCC3(CC2)CC(c2cccc(Cl)c2)CO3)c1C (stereo in doubt; form 2) : log10 of Ratio was 3.58

Short answer for COc1ccc(C2CC3(CCN(C(=O)Nc4onc(C)c4C)CC3)C2)cc1 : log10 of Ratio was 2.77
